- experimental_target: norepinephrine transporter (Homo sapiens)
- Construct: expressed in transfected cells; host or cells: HEK-293
- experiment: Norepinephrine reuptake inhibition in transporter-transfected HEK-293 cells ([3H]-NE)
- Type: cell-based
- run_parameters: compound 1 μM; [3H]-NE; relative to control without compound (100%), lower = more inhibition
The following compounds are listed with their measured Triple reuptake inhibition (Ratio %) NET values.
Form field: result (number plus unit)

As a guide, the following entries are already answered.
compound	Triple reuptake inhibition (Ratio %) NET
CCCCOc1ccc2cc(C(=O)NCCN3CCC(Cc4ccccc4)CC3)[nH]c2c1	44.53%
O=C(NCCN1CCC(Cc2ccccc2)CC1)c1cc2cc(Cl)ccc2[nH]1	72.60%
O=C(NCCN1CCN(Cc2ccccc2)CC1)c1cc2ccccc2[nH]1	76.45%

So the reported Triple reuptake inhibition (Ratio %) NET for O=C(NCCN1CCC(Cc2ccc(Cl)c(Cl)c2)CC1)c1ccc(Cl)c(Cl)c1 , on norepinephrine transporter (Homo sapiens), turned out to be 88.67%

Sample O=C(NCCN1CCN(Cc2ccc(Cl)c(Cl)c2)CC1)c1ccc(Cl)c(Cl)c1 , system: norepinephrine transporter (Homo sapiens). Its Triple reuptake inhibition (Ratio %) NET is 82.25%

Record for O=C(NCCN1CCN(c2cccc(C(F)(F)F)c2)CC1)c1ccc(Cl)c(Cl)c1 under target or system norepinephrine transporter (Homo sapiens): Triple reuptake inhibition (Ratio %) NET reported as 94.42%

The compound O=C(NCCN1CCN(Cc2ccc(Cl)c(Cl)c2)CC1)c1cc2ccccc2[nH]1 on norepinephrine transporter (Homo sapiens): Triple reuptake inhibition (Ratio %) NET was 91.21%

Bench note, norepinephrine transporter (Homo sapiens): O=C(O)c1ccc2[nH]c(C(=O)NCCN3CCC(Cc4ccccc4)CC3)cc2c1 , Triple reuptake inhibition (Ratio %) NET reads 95.95%

* * *

- experimental_target: norepinephrine transporter (Homo sapiens, UniProt P23975)
- Construct: expressed in transfected cells; host or cells: HEK-293
- Sequence (P23975 whole entry, species assumed): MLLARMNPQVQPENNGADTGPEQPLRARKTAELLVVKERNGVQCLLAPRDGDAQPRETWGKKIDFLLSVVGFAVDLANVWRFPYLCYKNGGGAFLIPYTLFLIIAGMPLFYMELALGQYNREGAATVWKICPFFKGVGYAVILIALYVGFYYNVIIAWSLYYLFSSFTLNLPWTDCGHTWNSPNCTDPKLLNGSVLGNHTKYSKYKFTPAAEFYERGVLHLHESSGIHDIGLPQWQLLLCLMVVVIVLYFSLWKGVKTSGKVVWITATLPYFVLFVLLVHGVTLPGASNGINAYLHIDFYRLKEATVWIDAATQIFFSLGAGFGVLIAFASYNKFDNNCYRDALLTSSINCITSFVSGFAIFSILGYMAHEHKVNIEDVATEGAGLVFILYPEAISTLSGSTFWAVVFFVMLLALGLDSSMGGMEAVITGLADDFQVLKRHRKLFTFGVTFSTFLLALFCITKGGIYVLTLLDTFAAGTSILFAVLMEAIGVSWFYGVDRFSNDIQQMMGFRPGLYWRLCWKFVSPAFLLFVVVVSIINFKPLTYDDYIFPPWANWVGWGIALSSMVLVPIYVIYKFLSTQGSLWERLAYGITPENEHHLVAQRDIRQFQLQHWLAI
- experiment: Norepinephrine reuptake inhibition in transporter-transfected HEK-293 cells ([3H]-NE)
- Type: cell-based
- run_parameters: concentration at which Ratio % is 50%; 6 concentrations 1 nM to 1 μM; read-out: Triple reuptake inhibition (IC50, μM) NET
Hi! Could you tag entries with IC50 below 2 µM as true (1), and those at or above as false (0)? Much appreciated.

compound	category_label
COc1ccc2[nH]c(C(=O)NCCN3CCC(Cc4ccccc4)CC3)nc2c1 [Example 59]	true (1)
CCCCOc1ccc2cc(C(=O)NCCN3CCC(Cc4ccccc4)CC3)[nH]c2c1 [Example 42]	true (1)

Is IC50 strictly under 2 µM for the entry COc1ccc2[nH]c(C(=O)NCCN3CCC(Cc4ccccc4)CC3)cc2c1 [Example 33] ?
true (1)

Lab note: IC50 threshold 2 µM. Does this compound come in strictly under it? O=C(NCCN1CCC(Cc2ccccc2)CC1)c1cc2cc(O)ccc2[nH]1 [Example 66]
true (1)

Just wondering, is IC50 of O=C(NCCN1CCC(Cc2ccccc2)CC1)c1nc2ccccc2s1 [Example 55] below 2 µM?
false (0)

* * *

Triple reuptake inhibition (Ratio %) SERT values for the compounds below.
- experimental_target: serotonin transporter (Homo sapiens)
- Construct: expressed in transfected cells; host or cells: HEK-293
- Sequence (P31645 whole entry): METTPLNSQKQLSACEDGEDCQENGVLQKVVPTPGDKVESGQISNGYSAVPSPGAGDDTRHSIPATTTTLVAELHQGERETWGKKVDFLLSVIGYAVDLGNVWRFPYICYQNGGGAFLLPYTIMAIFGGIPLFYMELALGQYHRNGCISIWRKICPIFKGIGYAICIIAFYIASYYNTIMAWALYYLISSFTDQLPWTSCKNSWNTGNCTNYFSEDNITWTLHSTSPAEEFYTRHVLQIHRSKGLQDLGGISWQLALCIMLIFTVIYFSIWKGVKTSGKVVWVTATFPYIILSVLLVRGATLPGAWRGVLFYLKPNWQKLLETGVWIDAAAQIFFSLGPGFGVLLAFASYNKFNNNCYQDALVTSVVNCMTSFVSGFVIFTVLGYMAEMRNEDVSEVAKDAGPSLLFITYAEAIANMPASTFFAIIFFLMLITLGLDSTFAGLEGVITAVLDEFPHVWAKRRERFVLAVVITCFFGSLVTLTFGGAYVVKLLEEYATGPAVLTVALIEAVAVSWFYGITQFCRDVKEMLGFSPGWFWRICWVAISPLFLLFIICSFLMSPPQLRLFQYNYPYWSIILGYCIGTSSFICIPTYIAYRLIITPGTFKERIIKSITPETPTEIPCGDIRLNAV
- experiment: Serotonin reuptake inhibition in transporter-transfected HEK-293 cells ([3H]-5-HT)
- Type: cell-based
- run_parameters: compound 1 μM; [3H]-5-HT; relative to control without compound (100%), lower = more inhibition
Report the figure in % without appending any unit label.

Some compounds with recorded Triple reuptake inhibition (Ratio %) SERT:
compound	experimental_target	observed
O=C(NCCN1CCC(Cc2ccc(F)c(F)c2)CC1)c1cc2ccccc2[nH]1 [Example 27]	serotonin transporter (Homo sapiens)	75.39
O=C(NCCN1CCC(Cc2ccccc2)CC1)c1nc2cc(F)ccc2s1 [Example 60]	serotonin transporter (Homo sapiens)	53.40
O=C(NCCN1CCN(c2ccc(Cl)c(Cl)c2)CC1)c1ccc(Cl)c(Cl)c1 [Example 14]	serotonin transporter (Homo sapiens)	88.61
O=C(O)c1ccc2[nH]c(C(=O)NCCN3CCC(Cc4ccccc4)CC3)cc2c1 [Example 81]	serotonin transporter (Homo sapiens)	87.86
O=C(NCCN1CCN(c2cccc(Cl)c2Cl)CC1)c1cc2ccccc2[nH]1 [Example 23]	serotonin transporter (Homo sapiens)	85.13

The reported Triple reuptake inhibition (Ratio %) SERT of the compound O=C(NCCn1ccc(-c2ccc(F)cn2)n1)c1cc2ccccc2[nH]1 [Example 52] was 93.19
